Recorded AUC/dose for the following compounds
# Test system: Rattus norvegicus
# test.method.notes: Dose normalized AUC in rat at 1 mg/kg, iv and 2 mg/kg, po
# Format: ADME, organism-based
# assay.conditions: in vivo
Entry rule: numbers only, all in µM·h/mg/kg.

CCS(=O)(=O)Nc1n[nH]c2c1CN([C@H]1CO[C@H](c3cc(F)ccc3F)[C@@H](N)C1)C2    3.4
N[C@H]1C[C@@H](N2Cc3cn(S(=O)(=O)C4CCCC4)nc3C2)CO[C@@H]1c1cc(F)ccc1F    0.9
CCS(=O)(=O)n1cc2c(n1)CN([C@H]1CO[C@H](c3cc(F)ccc3F)[C@@H](N)C1)C2    22
CS(=O)(=O)Nc1n[nH]c2c1CN([C@H]1CO[C@H](c3cc(F)ccc3F)[C@@H](N)C1)C2    2.5
N[C@H]1C[C@@H](N2Cc3cnn(S(=O)(=O)C4CCCC4)c3C2)CO[C@@H]1c1cc(F)ccc1F    0.4
CS(=O)(=O)n1cc2c(n1)CN([C@H]1CO[C@H](c3cc(F)ccc3F)[C@@H](N)C1)C2 [OMARIGLIPTIN]    48
N[C@H]1C[C@@H](N2Cc3cn(S(=O)(=O)C4CC4)nc3C2)CO[C@@H]1c1cc(F)ccc1F    47

As a next step, examine the compound that follows.
Ask: # query: AUC/dose of entry N[C@H]1C[C@@H](N2Cc3cnn(S(=O)(=O)C4CC4)c3C2)CO[C@@H]1c1cc(F)ccc1F
Reply: 1.7
